System: SF-268 CNS
protocol text: NCI-60 one-dose screen, 48 h (100 = growth as untreated, 0 = no growth, -100 = all killed)
measurement parameters: 10 µM
The panel holds about 83,000 compounds, 20% with a hit somewhere; the sample as a whole holds those more often.
parameter measured: growth (%)
Expressed in %, but write only the number.

## Input Record request: growth value, item Cc1nc(N=C(N)N)nc2ccc3ccccc3c12
## Output -25.4

## Input What do you get for CC(=O)OCC(OC(C)=O)C(OC(C)=O)C(OC(C)=O)C(OC(C)=O)C(/C=N/Nc1ccccc1)=N/Nc1ccccc1 (configuration not stated) ?
## Output 71.5

## Input What about COC1OCC(O)C(O)C1O (configuration not stated) ?
## Output 98.4

## Input Same thing, different compound: O=C(O)COc1ccc(OCC(=O)O)cc1
## Output 14.2

## Input Try this compound too: CCO/C=C1\SC(=S)N(c2cccc(O)c2)C1=O
## Output 103

## Input // same read-out, input: COC(=O)C1C(O)C(C)C(O)C(C)C=C(C)C2=C3C(=C(C)C(=O)c4c(O)c(c(C)c(OC(C)=O)c43)NC(=O)C(C)=C/C=C\C(C)C(O)C(C)C1O)OCO2 (configuration not stated)
## Output 112

## Input Okay, and CC(=O)Nc1cc(C)ccc1C ?
## Output 101

## Input O=[N+]([O-])C1=C(c2ccccc2)SC=C(c2ccccc2)S1 ?
## Output 97.9

## Input Entry COc1cccc2c1C(=O)c1c(O)c3c(c(O)c1C2=O)C[C@@](O)(C(=O)CO)C[C@@H]3OC1CC(N)C(O)C(C)O1 (some centres not stated) please
## Output -4.32

## Input Record: O=C1NC(=O)c2cc([N+](=O)[O-])ccc21
## Output 106

====

Test system: HCT-15 colon
protocol text: NCI-60 one-dose screen, 48 h
measurement parameters: 10 µM
This is part of a sample that, as a whole, favours compounds with a hit. Of some 83,000 tested, about 20% had one in any assay. Calls of active or inactive are those of the source. The calls were made as follows: active = growth percent below 10; inactive = the rest.
Write down the outcome that applies. Available outcomes: class 1 = active, class 0 = inactive

Record excerpt, results attached:
# compound, class
measured = [
    ("COc1cccc2c1C(=O)c1c(O)c3c(c(O)c1C2=O)C[C@@](O)(C(C)=O)C[C@@H]3OC1CC(N)C(O)C(C)O1 (stereo partly specified)", "class 1"),
    ("CCCCCC(C)c1ccc(O)c(C)c1 (stereo unspecified)", "class 0"),
    ("NNc1c2ccccc2nc2ccccc12", "class 0"),
]

## Input Would you mind telling me which call this test gave CC(=O)OCC(OC(C)=O)C(OC(C)=O)C(OC(C)=O)C(OC(C)=O)C(/C=N/Nc1ccccc1)=N/Nc1ccccc1 (stereo unspecified) ?
## Output class 0

## Input Please answer likewise for Cc1nc(N=C(N)N)nc2ccc3ccccc3c12
## Output class 0

## Input Queued: Cc1cc(O)c(C(C)C)cc1Cl
## Output class 0

====

Measured growth by item
Test system: KM12 colon
protocol text: NCI-60 one-dose screen, 48 h (100 = growth as untreated, 0 = no growth, -100 = all killed)
measurement parameters: 10 µM
This is part of a sample that, as a whole, favours compounds with a hit. Of some 83,000 tested, about 20% had one in any assay.
Numbers only here, please. The scale is %.

# annotated cases, reported growth shown
# molecule, observed result
records = [
    ("O=[N+]([O-])C1=C(c2ccccc2)SC=C(c2ccccc2)S1", 81.3),
    ("CCN(CC)c1ccc(NC(C(=O)c2ccccc2)c2ccccc2)cc1 (configuration not stated)", 65.1),
    ("Clc1ccc(/C=C/c2ccccn2)c(Cl)c1", 71.4),
    ("COc1ccc(CC(=O)c2ccc(O)cc2O)cc1", 122),
    ("O=C1C=CC(=CC=C2C=CN(CCCCCCCCCCCO)C=C2)C=C1", 24.2),
]

Switching to the query record.
## Input Bench note: what growth did CSC1SCC2C(=O)N(C)C(C(C)C)C(=O)OCC(NC(=O)c3cnc4ccccc4n3)C(=O)NC(C)C(=O)N(C)C1C(=O)N(C)C(C(C)C)C(=O)OCC(NC(=O)c1cnc3ccccc3n1)C(=O)NC(C)C(=O)N2C (configuration not stated) show?
## Output -5.74

The values you see were collected from PubChem BioAssay (NCI).
